Consider the following molecules; for each one, report its normalized intracellular growth.
- Tested on: Salmonella enterica serovar Typhimurium SL1344
- PROTOCOL_DESCRIPTION: normalized intracellular growth (luminescence, IQM-normalized) in RAW264.7 macrophages (fraction of plate interquartile mean); higher = more bacterial growth (less inhibition)
- EXPERIMENTAL_PARAMETERS: 10 µM, time point: T3 (3 h)
Over roughly 1,600 compounds, “normalized intracellular growth (luminescence, IQM-normalized) in RAW264.7 macrophages” has its median near 1; the lowest 2% begin near 0.43. Only a selection was taken, and the lowest values are over-represented in it overall.
API doc: respond with a numeric literal and nothing else, no unit.

Query: Which normalized intracellular growth is listed for `CCN[C@@H]1C[C@H](N)[C@@H](O[C@H]2OC(CN)=CC[C@H]2N)[C@H](O)[C@H]1O[C@H]1OC[C@](C)(O)[C@H](NC)[C@H]1O` ?
Reply: 0.986

Query: Which normalized intracellular growth is listed for `NC(=O)C1(N2CCCCC2)CCN(CCCC(=O)c2ccc(F)cc2)CC1` ?
Reply: 0.984

Query: Which normalized intracellular growth is listed for `CC12CCC(CC1)C(C)(C)O2` ?
Reply: 1.02

Query: Which normalized intracellular growth is listed for `Nc1nc(N)c2nc(CNc3ccc(C(=O)N[C@@H](CCC(=O)O)C(=O)O)cc3)cnc2n1` ?
Reply: 0.994

Query: Which normalized intracellular growth is listed for `NC(=O)NC(=O)Cc1ccccc1` ?
Reply: 0.993

Query: Which normalized intracellular growth is listed for `CCCCCCc1ccc(O)cc1O.Nc1c2ccccc2nc2ccccc12` ?
Reply: 0.891

Query: Which normalized intracellular growth is listed for O=C([O-])C(O)[C@H](O)[C@@H](O)[C@H](O)[C@H](O)CO.O=C([O-])C(O)[C@H](O)[C@@H](O)[C@H](O)[C@H](O)CO.[Ca+2] (some centres undefined) ?
Reply: 1.04

Query: Which normalized intracellular growth is listed for `COc1ccc(C[C@H](N)C(=O)N[C@H]2[C@@H](O)[C@H](n3cnc4c(N(C)C)ncnc43)O[C@@H]2CO)cc1` ?
Reply: 0.993

Query: Which normalized intracellular growth is listed for `O=C(CCCN1CCC(O)(c2ccc(Br)cc2)CC1)c1ccc(F)cc1` ?
Reply: 0.391

----------
- System: Salmonella enterica serovar Typhimurium SL1344
- PROTOCOL_DESCRIPTION: normalized intracellular growth (luminescence, IQM-normalized) in RAW264.7 macrophages (fraction of plate interquartile mean); higher = more bacterial growth (less inhibition)
- EXPERIMENTAL_PARAMETERS: 10 µM, time point: Tfinal (~6 h)
Whole data set: some 1,600 compounds, median “normalized intracellular growth (luminescence, IQM-normalized) in RAW264.7 macrophages” near 1, cut for the lowest 2% near 0.43. This excerpt belongs to a sample that is enriched for the lowest values.
Consider the following molecules; for each one, report its normalized intracellular growth.

Query: Which normalized intracellular growth is listed for C=NC(C(=O)NC1C(=O)N2C1SC(C)(C)C2C(=O)O)c1ccccc1 (stereo unspecified) ?
Reply: 1.04

Query: Which normalized intracellular growth is listed for CCCCC(CC)CN=C(N)N=C(N)NCCCCCCNC(N)=NC(N)=NCC(CC)CCCC (stereo unspecified) ?
Reply: 1.1

Query: Which normalized intracellular growth is listed for `CC1=CC(=O)NS(=O)(=O)O1` ?
Reply: 1.04

Query: Which normalized intracellular growth is listed for `Cc1cc(O)cc(C)c1Cl` ?
Reply: 1.11

Query: Which normalized intracellular growth is listed for `CCCc1nc(C)c2c(O)nc(-c3cc(S(=O)(=O)N4CCN(CC)CC4)ccc3OCC)nn12` ?
Reply: 0.899

Query: Which normalized intracellular growth is listed for `CC(=O)[C@@]1(O)CC[C@H]2[C@@H]3C=C(Cl)C4=CC(=O)[C@@H]5C[C@@H]5[C@]4(C)[C@H]3CC[C@@]21C` ?
Reply: 0.762

Query: Which normalized intracellular growth is listed for `Nc1ccc(S(=O)(=O)O)cc1.Nc1ccc(S(=O)(=O)O)cc1.[Zn]` ?
Reply: 1.15

Query: Which normalized intracellular growth is listed for `CCOC(=S)SSC(=S)OCC` ?
Reply: 0.924

Query: Which normalized intracellular growth is listed for `C=CCCCCCCCCC(=O)[O-].C=CCCCCCCCCC(=O)[O-].[Zn+2]` ?
Reply: 0.832

Query: Which normalized intracellular growth is listed for `Cc1c(OCC(F)(F)F)ccnc1C[S@@+]([O-])c1nc2ccccc2[nH]1` ?
Reply: 1.18

Query: Which normalized intracellular growth is listed for `CCOc1ccc(Cc2nccc3cc(OCC)c(OCC)cc23)cc1OCC` ?
Reply: 0.43
